Parameter: IC50. Scope: all listed entries.
# Target or system: Lymphokine-activated killer T-cell-originated protein kinase (Homo sapiens, UniProt Q96KB5)
# Sequence (Q96KB5 whole entry): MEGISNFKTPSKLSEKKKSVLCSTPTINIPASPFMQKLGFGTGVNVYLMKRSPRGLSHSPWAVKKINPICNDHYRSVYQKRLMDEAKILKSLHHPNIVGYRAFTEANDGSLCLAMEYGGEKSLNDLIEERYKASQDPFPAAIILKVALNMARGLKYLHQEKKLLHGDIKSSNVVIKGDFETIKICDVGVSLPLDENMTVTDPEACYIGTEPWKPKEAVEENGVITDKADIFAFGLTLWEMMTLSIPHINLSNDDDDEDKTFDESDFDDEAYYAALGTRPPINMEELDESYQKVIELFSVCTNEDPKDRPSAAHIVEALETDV
# Procedure summary: Kinase Assay
# Condition: pH 7.4; 25 °C
Measurement kind: IC50 (µM)

| Compound | Recorded value |
| --- | --- |
| CC(C)OC(=O)Oc1ccc2[nH]c(=O)c3sccc3c2c1-c1ccc(C(C)N)cc1 (stereo unspecified) [US8962648, 1077] | 0.076 |
| COc1ccc2[nH]c(=O)c3sccc3c2c1-c1ccc(CCN)c(F)c1 [US8962648, 265] | 0.0038 |
| CCC(C#N)c1ccc(-c2c(O)ccc3[nH]c(=O)c4sccc4c23)cc1 (stereo unspecified) [US8962648, 1162] | 0.013 |
| NCCc1ccc(-c2c(O)ccc3[nH]c(=O)c4sccc4c23)cc1F [US8962648, 276] | 0.0005 |
| CC(c1ccc(-c2c(O)c(F)c(F)c3[nH]c(=O)c4sccc4c23)cc1)N(C)C (stereo unspecified) [US8962648, 341] | 0.034 |
| CC(C)(N)c1ccc(-c2c(O)ccc3[nH]c(=O)c4sccc4c23)cc1 [US8962648, 319] | 0.00043 |
| CC(N)c1ccc(-c2c(O)cc(Br)c3[nH]c(=O)c4sccc4c23)cc1 (stereo unspecified) [US8962648, 1032] | 0.047 |
| CN(C)CCc1ccc(-c2c(O)ccc3[nH]c(=O)c4sccc4c23)cc1 [US8962648, 93] | 0.0054 |
| Cc1cc(O)c(-c2ccc(C(C)(C)N)cc2)c2c1[nH]c(=O)c1sccc12 [US8962648, 1330] | 0.0083 |
| C[C@@H](N)c1ccc(-c2c(O)cc(Br)c3[nH]c(=O)c4sccc4c23)cc1 [US8962648, 1123] | 0.033 |
| O=c1[nH]c2ccc(O)c(-c3ccc(S(=O)(=O)NCCBr)cc3)c2c2c1CCC2 [US8962648, 1094] | 0.01 |
| C[C@@H](c1ccc(-c2c(O)ccc3[nH]c(=O)c4sccc4c23)cc1)N(C)C [US8962648, 335] | 0.0029 |
| CCC(c1ccc(-c2c(O)ccc3[nH]c(=O)c4sccc4c23)cc1)N(CC)CC (stereo unspecified) [US8962648, 338] | 0.0037 |
| CC(c1ccc(-c2c(O)ccc3[nH]c(=O)c4sccc4c23)cc1)N1CCCC1 (stereo unspecified) [US8962648, 194] | 0.0028 |
| COc1cc(Cl)c2[nH]c(=O)c3sccc3c2c1-c1ccc(C2(CN)CCC2)cc1 [US8962648, 1321] | 0.096 |
| COc1ccc2[nH]c(=O)c3sccc3c2c1-c1ccc(CN(C)C)cc1 [US8962648, 164] | 0.011 |
| Cc1cc(O)c(-c2ccc(C(C)CS(N)(=O)=O)cc2)c2c1[nH]c(=O)c1sccc12 (stereo unspecified) [US8962648, 1419] | 0.082 |
| Nc1ccc(-c2c(O)ccc3[nH]c(=O)c4sccc4c23)cc1O [US8962648, 217] | 0.0023 |
| O=c1[nH]c2ccc(O)c(-c3ccc(S(=O)(=O)NCCBr)cc3)c2c2ccsc12 [US8962648, 210] | 0.0113 |
| Cc1cc2c(s1)c(=O)[nH]c1c(C)cc(O)c(-c3ccc([C@@H](C)CN)cc3)c12 [US8962648, 1340] | 0.012 |
| CCC(CN)c1ccc(-c2c(O)ccc3[nH]c(=O)c4sccc4c23)cc1 (stereo unspecified) [US8962648, 1309] | 0.00074 |
